The reported measurements were obtained from paper PMC10786891.

Molecular target: T1, EsCas13d, nuclease-dead (Eubacterium siraeum, UniProt B0MS50, R295A;H300A;R849A;H854A)
T1 sequence: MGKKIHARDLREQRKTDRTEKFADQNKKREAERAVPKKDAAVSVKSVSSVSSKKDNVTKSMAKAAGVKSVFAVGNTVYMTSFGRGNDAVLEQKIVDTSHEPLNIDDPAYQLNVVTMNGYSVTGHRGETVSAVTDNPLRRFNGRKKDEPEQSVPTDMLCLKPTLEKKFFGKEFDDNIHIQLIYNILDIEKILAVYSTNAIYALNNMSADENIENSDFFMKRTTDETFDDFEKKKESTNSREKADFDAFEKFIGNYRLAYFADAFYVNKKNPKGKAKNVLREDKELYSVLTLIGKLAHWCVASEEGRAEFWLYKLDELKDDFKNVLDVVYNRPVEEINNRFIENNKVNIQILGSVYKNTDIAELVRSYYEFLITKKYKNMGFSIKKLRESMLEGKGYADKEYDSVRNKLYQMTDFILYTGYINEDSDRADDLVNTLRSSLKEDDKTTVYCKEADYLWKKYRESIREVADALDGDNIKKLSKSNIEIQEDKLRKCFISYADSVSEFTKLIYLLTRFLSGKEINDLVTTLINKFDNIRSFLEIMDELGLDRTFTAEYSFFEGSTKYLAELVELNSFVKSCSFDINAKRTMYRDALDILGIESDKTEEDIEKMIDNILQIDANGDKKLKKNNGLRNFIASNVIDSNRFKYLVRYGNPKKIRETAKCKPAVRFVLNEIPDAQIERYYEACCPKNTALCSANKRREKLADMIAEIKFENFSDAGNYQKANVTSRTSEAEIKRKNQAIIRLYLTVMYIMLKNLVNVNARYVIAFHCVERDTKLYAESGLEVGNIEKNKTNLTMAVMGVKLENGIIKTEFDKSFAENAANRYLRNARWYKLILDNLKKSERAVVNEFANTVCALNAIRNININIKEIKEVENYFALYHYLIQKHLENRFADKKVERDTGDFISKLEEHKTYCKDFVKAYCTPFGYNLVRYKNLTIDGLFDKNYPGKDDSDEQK
Experiment: crRNA (strand 1, pre-loaded); Mg2+; 40 mM Tris-HCl pH 7.5, 150 mM NaCl, 6 mM MgCl2, 1 mM DTT, 0.1% Tween-20, 0.2 mg/ml BSA; 25 C; 10 min per concentration, then washed
Conditions: tags: His6-TwinStrep-SUMO cleaved; N-terminal SNAP kept (SNAP-Surface 488); label: 3' end held by stalled T7 RNA polymerase
pKd: −log10 of the molar value.
Short version: pKd at least 8 is true, less is false.

| binder | label.class |
| --- | --- |
| target 2 MT 5'PFS UUA 3'PFS AGA (mixed) RNA 1: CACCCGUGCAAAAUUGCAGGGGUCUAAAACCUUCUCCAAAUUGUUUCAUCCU RNA 2: GGGAAUGGAUCCACAUCUACGAAUUCUUAAGGAUGAAACAAUUUGGAGAAGAGAAGAUCGGAAGAGCACACGU | false |
| target 1 insG 3' of 11,insG 3' of 8 (mixed) RNA 1: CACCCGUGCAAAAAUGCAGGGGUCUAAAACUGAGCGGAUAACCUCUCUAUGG RNA 2: GGGAAUGGAUCCACAUCUACGAAUUCGUACCAUAGAGAGGUGUAUGCCGCUCACCGAGAUCGGAAGAGCACACGU | false |
| target 1 MT 5'PFS AAU 3'PFS AAC (mixed) RNA 1: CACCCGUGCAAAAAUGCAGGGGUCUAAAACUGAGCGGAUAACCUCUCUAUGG RNA 2: GGGAAUGGAUCCACAUCUACGAAUUCAAUCCAUAGAGAGGUUAUCCGCUCAAACAGAUCGGAAGAGCACACGU | false |
| target 2 MT 5'PFS GCU 3'PFS CUC (mixed) RNA 1: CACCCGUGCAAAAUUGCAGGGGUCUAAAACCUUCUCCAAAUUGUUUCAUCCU RNA 2: GGGAAUGGAUCCACAUCUACGAAUUCGCUAGGAUGAAACAAUUUGGAGAAGCUCAGAUCGGAAGAGCACACGU | false |
| target 1 U3A,C7U (mixed) RNA 1: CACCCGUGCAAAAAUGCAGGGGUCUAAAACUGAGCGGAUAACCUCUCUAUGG RNA 2: GGGAAUGGAUCCACAUCUACGAAUUCGUACCAUAGAGAGGUUAUUCGCACACCGAGAUCGGAAGAGCACACGU | true |
| target 3 insU 3' of 22,insC 3' of 8 (mixed) RNA 1: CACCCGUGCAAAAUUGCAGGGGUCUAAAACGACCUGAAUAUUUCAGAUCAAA RNA 2: GGGAAUGGAUCCACAUCUACGAAUUCGUUUUUUGAUCUGAAAUAUCUCAGGUCUGCAGAUCGGAAGAGCACACGU | false |
| target 2 MT 5'PFS CUU 3'PFS CUC (mixed) RNA 1: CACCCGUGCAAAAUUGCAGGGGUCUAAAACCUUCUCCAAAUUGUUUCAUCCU RNA 2: GGGAAUGGAUCCACAUCUACGAAUUCCUUAGGAUGAAACAAUUUGGAGAAGCUCAGAUCGGAAGAGCACACGU | true |
| target 1 insG 3' of 18,insC 3' of 1 (mixed) RNA 1: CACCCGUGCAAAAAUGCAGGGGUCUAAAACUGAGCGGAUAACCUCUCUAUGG RNA 2: GGGAAUGGAUCCACAUCUACGAAUUCGUACCAUAGGAGAGGUUAUCCGCUCACCCGAGAUCGGAAGAGCACACGU | false |

Pending binder:
Determine whether this binder has pKd no lower than 8: target 3 insA 3' of 10,insC 3' of 10 (mixed) RNA 1: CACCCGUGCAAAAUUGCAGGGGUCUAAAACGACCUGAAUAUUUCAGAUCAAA RNA 2: GGGAAUGGAUCCACAUCUACGAAUUCGUUUUUGAUCUGAAAUACAUUCAGGUCUGCAGAUCGGAAGAGCACACGU
false
